Tested on: Plasmodium falciparum
Assay: Antimalarial activity against chloroquine-sensitive Plasmodium falciparum 3D7 infected type A+ human erythrocytes after 24 hrs by [G-3H]hypoxanthine uptake
Assay type: functional, organism-based
Conditions: 3D7, 24 h
Quick reference: pIC50 of the listed items.
Interpret pIC50 as the negative base-10 log of the concentration measured in mol/L.

The reported value for C[C@H]1[C@@H](CCNCCNc2ccnc3cc(Cl)ccc23)O[C@@H]2O[C@@]3(C)CC[C@H]4[C@H](C)CC[C@@H]1[C@@]24OO3 in terms of pIC50 is 8.27

pIC50 in this record for C[C@H]1[C@@H](CCNCCCCCNc2ccnc3cc(Cl)ccc23)O[C@@H]2O[C@@]3(C)CC[C@H]4[C@H](C)CC[C@@H]1[C@@]24OO3 : 7.62

For record C[C@H]1[C@@H](CCNCCCNc2ccnc3cc(Cl)ccc23)O[C@@H]2O[C@@]3(C)CC[C@H]4[C@H](C)CC[C@@H]1[C@@]24OO3 the listed pIC50 is 7.94

The compound listed as COc1ccc2nc3cc(Cl)ccc3c(NCCNCC[C@H]3O[C@@H]4O[C@@]5(C)CC[C@H]6[C@H](C)CC[C@@H]([C@H]3C)[C@@]46OO5)c2c1 shows pIC50 equal to 7.90

Recorded result, COc1ccc2nc3cc(Cl)ccc3c(N3CCN(C4CCC5(CC4)OOC4(O5)C5CC6CC(C5)CC4C6)CC3)c2c1 (stereo unspecified) , pIC50: 7.91

Note to self: pIC50 recorded for COc1ccc2nc3cc(Cl)ccc3c(NCCCNC3CCC4(CC3)OOC3(O4)C4CC5CC(C4)CC3C5)c2c1 (stereo unspecified) was 7.90

* * *

System: Plasmodium falciparum
Assay: Antimalarial activity against chloroquine-sensitive Plasmodium falciparum 3D7 infected type A+ human erythrocytes after 24 hrs by [G-3H]hypoxanthine uptake
Type: functional, organism-based
Details: 3D7, 24 h
Rule: IC50 below 10 nM gives 1. Equal to or above 10 nM gives -1.

Solved entries:
# compound, assayed.system, discrete.label
records = [
    ("Clc1ccc2c(NCCCNC3CCC4(CC3)OOC3(O4)C4CC5CC(C4)CC3C5)ccnc2c1 (centres undefined)", "Plasmodium falciparum", -1),
    ("COc1ccc2nc3cc(Cl)ccc3c(NCCNCc3ccc(CO[C@H]4O[C@@H]5O[C@@]6(C)CC[C@H]7[C@H](C)CC[C@@H]([C@H]4C)[C@@]57OO6)cc3)c2c1", "Plasmodium falciparum", -1),
    ("C[C@H]1[C@@H](CCNCCCCNc2ccnc3cc(Cl)ccc23)O[C@@H]2O[C@@]3(C)CC[C@H]4[C@H](C)CC[C@@H]1[C@@]24OO3", "Plasmodium falciparum", -1),
    ("C[C@H]1[C@@H](CC(=O)NCCCNc2ccnc3cc(Cl)ccc23)O[C@@H]2O[C@@]3(C)CC[C@H]4[C@H](C)CC[C@@H]1[C@@]24OO3", "Plasmodium falciparum", 1),
    ("O=C1CCC2(CC1)OOC1(O2)C2CC3CC(C2)CC1C3 (centres undefined)", "Plasmodium falciparum", 1),
]

For COc1ccc2nc3cc(Cl)ccc3c(NCCNC3CCC4(CC3)OOC3(O4)C4CC5CC(C4)CC3C5)c2c1 (centres undefined) , is the recorded IC50 below the cut-off of 10 nM? 1

Is it true that IC50 reported for Clc1ccc2c(N3CCN(C4CCC5(CC4)OOC4(O5)C5CC6CC(C5)CC4C6)CC3)ccnc2c1 (centres undefined) is less than 10 nM? -1

Confirm or reject: IC50 of COc1ccc2nc3cc(Cl)ccc3c(NCCCNCc3ccc(CO[C@H]4O[C@@H]5O[C@@]6(C)CC[C@H]7[C@H](C)CC[C@@H]([C@H]4C)[C@@]57OO6)cc3)c2c1 lies strictly below 10 nM -1

Threshold test, IC50 < 10 nM: Clc1ccc2c(NCCNC3CCC4(CC3)OOC3(O4)C4CC5CC(C4)CC3C5)ccnc2c1 (centres undefined) 1
